The origin of these recorded values is patent US20250114466A1.

system: A-549 cells; experiment: In vitro cell viability assay (CellTiter-Glo, 6 days), A-549; type: cell-based; conditions: Homo sapiens, A549, 144 h, free antifolate drug, Table 1a
attribute.measured: pIC50
Give bare numbers, as −log10 of the molar value.

// query # pIC50 lookup, item `Nc1nc(N)c2nc(CNc3ccc(C(=O)N[C@@H](CCCNC(=O)c4ccccc4C(=O)O)C(=O)O)cc3)cnc2n1`
// result 8.77
